// reported inhibition for each item listed
Procedure summary: reduction of Shn3 3'UTR firefly luciferase signal, primary screen, Schnurri-3 inhibitor project, cell-based, Clone20 osteoblasts, set 2 (AID 588674);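 note: 0% = median of neutral control wells and 100% = pilot-screen positive control compound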
Condition summary: Clone20 osteoblast Shn3 3'UTR firefly luciferase, 24 h; at 12.5 µM; active compounds read high
The whole screen tested about 360,000 compounds, of which about 1,800 (0.5%) were called active. Shown is part of a subset that was picked to be rich in actives.

# inhibition lookup, item Cc1ccc(C2CN(C)CC2C(=O)c2ccc(F)cc2)cc1 (stereo not given)
6.66% (inactive)

Could you tell me which inhibition is on file for CN1C2C=C(N(C(=O)c3ccc(Cl)cc3)c3ccccc3)CC1CC2 (stereo not given) ?
-7.65% (inactive)

Which inhibition is listed for `CCC(=O)c1ccc(OCC(=O)N2CCN(CC(=O)Nc3ccc(C)cc3)CC2)cc1` ?
19.6% (inactive)

Requested read-out: inhibition. Entry: Cc1ccc(N2C(=O)NC(=O)C(CCc3ccncc3)(Cc3cccc(Cl)c3Cl)C2=O)cc1 (stereo not given)
-0.01% (inactive)

Value lookup for inhibition; key = O=C1NC(=O)C(CCc2ccccn2)(Cc2cccc(Cl)c2Cl)C(=O)N1c1ccc(Br)cc1 (stereo not given)
13.7% (inactive)

Quick one: inhibition for CC(=O)OC1C2(CC3N4C(=O)C5(CO)SSC4(CC31O)C(=O)N5C)OC(C)C(C)(C)C2=O (stereo not given) ?
98.1% (active)

Entry CCN1C(=O)C(=Cc2c(C)n(CC(=O)NCC3CCCO3)c3ccccc23)C(=O)N(CC)C1=S (stereo not given) : reported inhibition = ?
1.7% (inactive)

Recorded inhibition for `CCCCCCCCCCCCn1ccc(=N)cc1` , please?
90.6% (active)

Quick one: inhibition of CCC(C)(O)C(=O)OC1C(=O)OC2CC3C(C)=CC(=O)C(O)C3(C)C3C4(O)OCC23C1C(C)C4O (stereo not given) ?
91.5% (active)

# query: inhibition of entry O=C(c1ccccc1)C(O)(CN1CCCCC1)c1ccccc1 (stereo not given)
5.93% (inactive)

src = PubChem BioAssay AID588674
